TARGET_OR_SYSTEM: human mitochondrial malate dehydrogenase (hMDH2) (Homo sapiens, UniProt P40926)
Construct: gene MDH2
Sequence (P40926 19-338): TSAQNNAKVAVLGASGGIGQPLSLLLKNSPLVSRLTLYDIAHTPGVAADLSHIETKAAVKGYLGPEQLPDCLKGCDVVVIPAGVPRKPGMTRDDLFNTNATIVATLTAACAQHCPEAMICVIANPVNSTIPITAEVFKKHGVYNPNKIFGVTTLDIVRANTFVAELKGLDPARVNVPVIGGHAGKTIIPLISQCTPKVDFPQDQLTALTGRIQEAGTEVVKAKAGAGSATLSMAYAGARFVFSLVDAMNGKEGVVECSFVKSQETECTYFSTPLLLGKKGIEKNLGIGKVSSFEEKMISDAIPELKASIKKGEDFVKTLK
ASSAY_DETAILS: ITC direct titration; crystal structure with oxaloacetate
Type: binding
pKd: −log10 of the molar value.

- SMI: "NC(=O)C1=CN([C@@H]2O[C@H](COP(=O)(O)OP(=O)(O)OC[C@H]3O[C@@H](n4cnc5c(N)ncnc54)[C@H](O)[C@@H]3O)[C@@H](O)[C@H]2O)C=CC1"
  pKd: 5.52

meta.source: paper PMC9496400
